FYI, the data here is from ChEMBL document CHEMBL1208715.

- test_details: Inhibition of HCV GT1b NS5B polymerase
- Design: species or system Hepacivirus hominis
pIC50: −log10 of the molar value.
Short version: pIC50 at least 7 is rule met, less is rule not met.

See these solved cases before continuing.
O=C(O)c1sc(-c2ccccc2)cc1-c1cnnn1-c1ccccc1
rule not met
C[C@H]1CC[C@H](c2ncccc2-c2cc(-c3ccccc3)sc2C(=O)O)CC1
rule met

Then there is this compound:
// inclusive: pIC50 at least 7? input: `CC(C)N(c1cc(-c2ccccc2)sc1C(=O)O)C(=O)[C@H]1CC[C@H](C)CC1` rule met

###

- assay_target: RNA-directed RNA polymerase (Hepacivirus hominis, UniProt O39930, M414T)
- Sequence (O39930 entry or part of it M414T): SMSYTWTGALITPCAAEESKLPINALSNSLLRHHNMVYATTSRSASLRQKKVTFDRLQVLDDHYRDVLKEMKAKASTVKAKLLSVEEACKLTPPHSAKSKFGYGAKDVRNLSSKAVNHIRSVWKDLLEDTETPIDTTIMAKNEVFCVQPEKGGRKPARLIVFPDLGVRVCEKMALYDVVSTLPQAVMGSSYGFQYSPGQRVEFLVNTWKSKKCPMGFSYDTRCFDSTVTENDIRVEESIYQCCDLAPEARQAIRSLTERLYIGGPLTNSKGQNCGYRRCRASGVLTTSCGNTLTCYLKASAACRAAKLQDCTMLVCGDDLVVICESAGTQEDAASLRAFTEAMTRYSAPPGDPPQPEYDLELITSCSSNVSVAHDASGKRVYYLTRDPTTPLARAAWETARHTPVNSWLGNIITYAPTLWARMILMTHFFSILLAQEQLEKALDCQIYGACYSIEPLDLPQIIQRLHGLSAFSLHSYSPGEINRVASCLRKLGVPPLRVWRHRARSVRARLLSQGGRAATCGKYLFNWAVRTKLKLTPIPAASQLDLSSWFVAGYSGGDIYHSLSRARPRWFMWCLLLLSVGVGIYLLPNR
- test_details: Inhibition of HCV NS5B polymerase M414T mutant
endpoint: pKd
FYI, pKd means -log10 of a concentration in mol per litre.

Take a look at these entries with their results.
C[C@H]1CC[C@H](n2nncc2-c2cc(-c3ccccc3)sc2C(=O)O)CC1
6.22
CC(C)N(c1cc(-c2ccccc2)sc1C(=O)O)C(=O)[C@H]1CC[C@H](C)CC1
7.48

The recorded pKd for entry `Cc1ccc(-n2nncc2-c2cc(-c3ccccc3)sc2C(=O)O)cc1` equals 5.40
